Each recorded value in this set is attributed to the supplement of paper PMC10126150.

# System: ATP;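 further: ATP exposure 15 min at 22 °C before imaging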
# Procedure summary: switch fluorescence ratio, 500 uM ATP over buffer (Cy3 cluster intensity, sum of 5 cycles each) (fold (ratio)); higher = stronger signal-on switching upon ATP binding; sequences stand for … in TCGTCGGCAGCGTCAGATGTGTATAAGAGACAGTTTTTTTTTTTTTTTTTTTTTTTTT…TC
# Assay setup: aptamer strand: ATP DNA aptamer (quencher-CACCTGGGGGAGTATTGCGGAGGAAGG + anchor), 100 nM annealed; ATP concentration: 500 uM
Value type: switch fluorescence ratio

Sequence input: TGTTGTTAAT
switch fluorescence ratio: 0.999
--
Sequence input: GGCTTATGTG
switch fluorescence ratio: 1.02
--
Sequence input: GCGGAGAGGT
switch fluorescence ratio: 1.03

# return switch fluorescence ratio for each item in the list
1. ATGTGTAGGC
2. ACACAGGTAT

1: 1.02; 2: 1.12
